test system: panel of 240 cancer cell lines; assay: 10-day growth/death assay (Eurofins panel); format: cell-based; conditions: Homo sapiens, RL95-2, RL95-2; read-out: gIC50
QUANTITY KIND: IC50 (nM)
Entry rule: numbers only, all in nM.

Entry "O=C(NC[C@H](O)CN1CCc2ccccc2C1)c1ccnc(NC2CCC2)c1" , IC50 reported as 218

###

system: panel of 240 cancer cell lines; experiment: 10-day growth/death assay (Eurofins panel); type: cell-based; details: Homo sapiens, HT1197, HT-1197; read-out: gIC50
QUANTITY KIND: pIC50
Please express pIC50 as -log10 of the molar concentration.

Entry "O=C(NC[C@H](O)CN1CCc2ccccc2C1)c1ccnc(NC2CCC2)c1" , pIC50 reported as 7.00

###

system: panel of 240 cancer cell lines; experiment: 10-day growth/death assay (Eurofins panel); assay type: cell-based; settings: Homo sapiens, SCaBER; read-out: gIC50
QUANTITY KIND: IC50 (µM)
Entry rule: numbers only, all in µM.

Entry "O=C(NC[C@H](O)CN1CCc2ccccc2C1)c1ccnc(NC2CCC2)c1" , IC50 reported as 0.123

###

Reported pIC50 is given for each of the following compounds.
system: panel of hematologic and solid cancer lines; test: 6-day in vitro growth/death assay; type: cell-based, human; settings: Homo sapiens, WSUDLCL2, WSU-DLCL2; read-out: gIC50
Please express pIC50 as -log10 of the molar concentration.

COMPOUND	pIC50
CC(=O)N1CCC(Nc2cc(C(=O)NC[C@H](O)CN3CCc4ccccc4C3)ncn2)CC1 [GSK3326595]	7.09

// below: pIC50 requested for another compound
Entry O=C(NC[C@H](O)CN1CCc2ccccc2C1)c1ccnc(NC2CCC2)c1 [GSK3203591] , pIC50 reported as 6.19

###

system: panel of 240 cancer cell lines; assay: 10-day growth/death assay (Eurofins panel); assay type: cell-based; settings: Homo sapiens, HT-1376, HT1376; read-out: gIC50
QUANTITY KIND: IC50 (nM)
Entry rule: numbers only, all in nM.

Entry O=C(NC[C@H](O)CN1CCc2ccccc2C1)c1ccnc(NC2CCC2)c1 [GSK3203591] , IC50 reported as 297

###

tested on: panel of 240 cancer cell lines; assay: 10-day growth/death assay (Eurofins panel); type: cell-based; conditions: Homo sapiens, NCI-H441, NCIH441; read-out: gIC50
QUANTITY KIND: pIC50
Please express pIC50 as -log10 of the molar concentration.

Entry O=C(NC[C@H](O)CN1CCc2ccccc2C1)c1ccnc(NC2CCC2)c1 [GSK3203591] , pIC50 reported as 6.25

###

system: panel of 240 cancer cell lines; experiment: 10-day growth/death assay (Eurofins panel); format: cell-based; details: Homo sapiens, NCI-H446, NCIH446; read-out: gIC50
QUANTITY KIND: pIC50
Please express pIC50 as -log10 of the molar concentration.

Entry "O=C(NC[C@H](O)CN1CCc2ccccc2C1)c1ccnc(NC2CCC2)c1" , pIC50 reported as 6.24

###

tested on: panel of hematologic and solid cancer lines; assay: 6-day in vitro growth/death assay; type: cell-based, human; conditions: Homo sapiens, U-2940, U2940; read-out: gIC50
Reported IC50 is given for each of the following molecules.
Entry rule: numbers only, all in µM.

MOLECULE	IC50 (µM)
O=C(NC[C@H](O)CN1CCc2ccccc2C1)c1ccnc(NC2CCC2)c1 [GSK3203591]	2.35

// below: IC50 requested for another molecule
Entry CC(=O)N1CCC(Nc2cc(C(=O)NC[C@H](O)CN3CCc4ccccc4C3)ncn2)CC1 [GSK3326595] , IC50 reported as 14.8

###

system: panel of 240 cancer cell lines; assay: 10-day growth/death assay (Eurofins panel); type: cell-based; conditions: Homo sapiens, BT-20, BT20; read-out: gIC50
QUANTITY KIND: IC50 (µM)
Entry rule: numbers only, all in µM.

Entry O=C(NC[C@H](O)CN1CCc2ccccc2C1)c1ccnc(NC2CCC2)c1 [GSK3203591] , IC50 reported as 2.28

###

tested on: panel of 240 cancer cell lines; test: 10-day growth/death assay (Eurofins panel); type: cell-based; conditions: Homo sapiens, SW872, SW872; read-out: gIC50
QUANTITY KIND: pIC50
Please express pIC50 as -log10 of the molar concentration.

Entry "O=C(NC[C@H](O)CN1CCc2ccccc2C1)c1ccnc(NC2CCC2)c1" , pIC50 reported as 7.27

###

test system: panel of 240 cancer cell lines; test: 10-day growth/death assay (Eurofins panel); format: cell-based; conditions: Homo sapiens, COLO 205, Colo 205; read-out: gIC50
pIC50: −log10 of the molar value.
QUANTITY KIND: pIC50

Entry "O=C(NC[C@H](O)CN1CCc2ccccc2C1)c1ccnc(NC2CCC2)c1" , pIC50 reported as < 5.00

###

system: panel of 240 cancer cell lines; test: 10-day growth/death assay (Eurofins panel); format: cell-based; conditions: Homo sapiens, MV4-11, MV-4-11; read-out: gIC50
QUANTITY KIND: IC50 (nM)
Entry rule: numbers only, all in nM.

Entry "O=C(NC[C@H](O)CN1CCc2ccccc2C1)c1ccnc(NC2CCC2)c1" , IC50 reported as 65.8

###

test system: panel of 240 cancer cell lines; assay: 10-day growth/death assay (Eurofins panel); format: cell-based; conditions: Homo sapiens, MIA PaCa-2, Mia PaCa-2; read-out: gIC50
QUANTITY KIND: IC50
Quick note: unit goes after the number.

// returns IC50 for "O=C(NC[C@H](O)CN1CCc2ccccc2C1)c1ccnc(NC2CCC2)c1" with panel of 240 cancer cell lines; value = 158 nM
